assay: PSAC antagonists in infected red cells, primary screen, cell-based, P. falciparum Indochina, OD700, 1 h (AID 1154); conditions: P. falciparum Indochina infected RBC osmotic lysis, higher = more signal, called active from +8 up or from −8 down
# z-score >= 6 gives t, anything below gives f

Query: # bool: z-score of [N-]=[N+]=NCc1ccccc1C[C@@]1(C(=O)NCC(O)CO)N=C(c2ccc(OCCCO)cc2)O[C@@H]1c1ccccc1N=[N+]=[N-] (some centres undefined) >= 6
Reply: t

Query: Next molecule up: C=CCNC(=O)[C@H]1[C@@H]2C(=O)O[C@@H](c3ccccc3)[C@@H](c3ccccc3)N2[C@@H](c2ccc(OCCO)cc2)[C@]12C(=O)N(C(=O)OCCOC)c1ccccc12
Reply: f

Query: Next molecule up: [N-]=[N+]=NCc1ccccc1C[C@]1(C(=O)O)N=C(c2ccc(OCCCO)cc2)O[C@H]1c1ccccc1N=[N+]=[N-]
Reply: t

Query: Next molecule up: O=C1NC(=O)C2C1C=CC(C(O)C(c1ccccc1)c1ccccc1)N2Nc1ccc(Cl)cc1Cl (centres undefined)
Reply: t

Query: Next molecule up: C=CC[C@@]1(C(N)=O)N=C(c2ccc(OCCCO)cc2)O[C@@H]1c1ccccc1CN=[N+]=[N-]
Reply: t

Query: Next molecule up: CC(C)N1C(=O)[C@@]2(Cc3ccccc31)c1ccccc1C(=O)N(C1CCCCC1)[C@H]2c1ccc(CO)cc1
Reply: f

Query: Next molecule up: C=CCNC(=O)[C@@H]1[C@H]2C(=O)O[C@H](c3ccccc3)[C@H](c3ccccc3)N2[C@H](c2ccc(OCCO)cc2)[C@@]12C(=O)Nc1ccc(C#CCCO)cc12
Reply: t

Query: Next molecule up: CC(C)C[C@@H]1NC(=O)[C@@H]2C[C@H](C(=O)NCCCCCN)[C@H](c3cccc(OCCO)c3)N2C1=O
Reply: f

Query: Next molecule up: CCOC(=O)C[C@H]1[C@H](OC(=O)c2cc3ccccc3oc2=O)[C@@H](NC(=O)Cc2ccc(OC)cc2)c2cc(OCCCO)ccc2N1C(=O)c1ccccc1
Reply: f

Query: Next molecule up: CCOC(=O)C1=CCC(c2ccc(C)cc2)N(S(=O)(=O)c2ccc(C)cc2)C1 (centres undefined)
Reply: f

Query: Next molecule up: COc1ccc(C(=O)Nc2ccc(CN3C(=O)[C@@]4(O[C@@H](CC(=O)N5CCC[C@H]5CO)[C@H]([Si](C)(C)c5ccc(OC)cc5)[C@H]4C)c4ccccc43)cc2)cc1
Reply: f

Query: Next molecule up: O=C1O[C@H](c2ccccc2)[C@H](c2ccccc2)N2[C@H]1[C@@H](C(=O)NC[C@H](O)c1ccccc1)[C@]1(C(=O)Nc3ccccc31)[C@H]2c1ccc(OCCO)cc1
Reply: f

Query: Next molecule up: C=C(CCCC)C(=O)CC[C@@H](OC(=O)c1cccnc1)c1ccc(CO)o1
Reply: f

Query: Next molecule up: CS(=O)(=O)CCOC(=O)C1=CC(CCCO)=CC(c2ccc(CN3CCCC3)cc2)N(Cc2cc3c(cc2Br)OCO3)C=C1C(=O)OCCS(C)(=O)=O (centres undefined)
Reply: f

###

assay: RPMI8226 myeloma cell viability, profiling panel, resazurin fluorescence, basal, 24 h, PK04 Diversity Set (AID 1180); conditions: higher = more signal;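 also: RPMI8826 multiple myeloma cell line at 5000 cells per well; test concentration not given here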
Can you tell me z-score for the items I'm about to list?

Query: Return reported z-score; argument: COCCOC(=O)N1C(=O)[C@@]2(c3ccccc31)[C@H](c1ccccc1OCCO)N1[C@H](c3ccccc3)[C@H](c3ccccc3)OC(=O)[C@H]1[C@@H]2C(=O)Nc1nc2ccccc2s1
Reply: 0.0081

Query: Next compound up: CCCCCN1CC=CC23O[C@@H]4/C=C\CCCOC(=O)C4[C@H]2C(=O)N(C(CO)C(C)C)[C@@H]3C1=O (some centres undefined)
Reply: 0.574

Query: Next compound up: CC(C)C(CO)N1C(=O)[C@@H]2[C@H]3C(=O)OCC=C[C@H]3OC23C=CCN(C(C)C)C(=O)[C@@H]13 (some centres undefined)
Reply: 0.634

Query: Next compound up: CC(C)C[C@@H]1NC(=O)[C@H]2C[C@@H](C(=O)NCCCCCCN(C)C)[C@@H](c3ccc(O)cc3)N2C1=O
Reply: -1.26
